Source listed as ChEMBL document CHEMBL3885861.

Species: Rattus norvegicus
run-description: Open TG-GATES - Regimen: Daily Repeat
Type: toxicity, organism-based, Sprague-Dawley
Set-up: regimen Daily Repeat, gender Male, age 6 weeks
experimental-context: in vivo, po, 300 mg/kg, 72 h, tissue Blood, route gavage, dose level Middle, time 3 day
Measured MCHC, listed per entry for reference.
readout: MCHC (%)

[
  {
    "compound": "CC(S)C(=O)NCC(=O)O (centres undefined)",
    "readout": "MCHC",
    "recorded-measurement": 33.6
  },
  {
    "compound": "O=C(O)c1ccccc1Nc1ccccc1",
    "readout": "MCHC",
    "recorded-measurement": 33.4
  },
  {
    "compound": "CC(=O)[C@@]1(O)CC[C@H]2[C@@H]3C=C(Cl)C4=CC(=O)CC[C@]4(C)[C@H]3CC[C@@]21C",
    "readout": "MCHC",
    "recorded-measurement": 33.2
  },
  {
    "compound": "CCCCNC(=O)NS(=O)(=O)c1ccc(C)cc1 [TOLBUTAMIDE]",
    "readout": "MCHC",
    "recorded-measurement": 32.8
  }
]

---

Measured MCV, listed per entry for reference.
Species on record: Rattus norvegicus
run-description: Open TG-GATES - Regimen: Single
Format: toxicity, organism-based, Sprague-Dawley
Design: regimen Single, gender Male, age 6 weeks
experimental-context: in vivo, po, 0 mg/kg, 9 h, tissue Blood, route gavage, dose level Control
readout: MCV (fL)

[
  {
    "molecule": "CN(CCOc1ccc(CC2SC(=O)NC2=O)cc1)c1ccccn1.O=C(O)/C=C\\C(=O)O (stereo not drawn) [ROSIGLITAZONE MALEATE]",
    "unit-label": "fL",
    "recorded-measurement": 65.6
  },
  {
    "molecule": "CCO",
    "unit-label": "fL",
    "recorded-measurement": 64.6
  },
  {
    "molecule": "CCN(CC)C(=S)SSC(=S)N(CC)CC",
    "unit-label": "fL",
    "recorded-measurement": 62.6
  }
]

---

Species: Rattus norvegicus
run-description: Open TG-GATES - Regimen: Daily Repeat
Type: toxicity, organism-based, Sprague-Dawley
Parameters: regimen Daily Repeat, gender Male, age 6 weeks
experimental-context: in vivo, po, 1000 mg/kg, […], tissue Blood, route gavage, dose level High, time 14 day
readout: PT (s)

[
  {
    "molecule": "O=C(O)c1ccccc1Nc1ccccc1",
    "recorded-measurement": 13.2
  },
  {
    "molecule": "CC(=O)[C@@]1(O)CC[C@H]2[C@@H]3C=C(Cl)C4=CC(=O)CC[C@]4(C)[C@H]3CC[C@@]21C",
    "recorded-measurement": 14.7
  },
  {
    "molecule": "CCCCNC(=O)NS(=O)(=O)c1ccc(C)cc1 [TOLBUTAMIDE]",
    "recorded-measurement": 12.5
  },
  {
    "molecule": "CC(S)C(=O)NCC(=O)O (centres undefined)",
    "recorded-measurement": 15.9
  }
]

---

Species: Rattus norvegicus
run-description: Open TG-GATES - Regimen: Daily Repeat
Assay type: toxicity, organism-based, Sprague-Dawley
Parameters: regimen Daily Repeat, gender Male, age 6 weeks
experimental-context: in vivo, po, 100 mg/kg, […], tissue Plasma, route gavage, dose level Low, time 28 day
Measured GLC, listed per entry for reference.

[
  {
    "compound": "O=C(O)c1ccccc1Nc1ccccc1",
    "GLC [mg/dL]": 179.6
  },
  {
    "compound": "CCCCNC(=O)NS(=O)(=O)c1ccc(C)cc1 [TOLBUTAMIDE]",
    "GLC [mg/dL]": 188.6
  },
  {
    "compound": "CC(=O)[C@@]1(O)CC[C@H]2[C@@H]3C=C(Cl)C4=CC(=O)CC[C@]4(C)[C@H]3CC[C@@]21C",
    "GLC [mg/dL]": 192.8
  },
  {
    "compound": "CC(S)C(=O)NCC(=O)O (centres undefined)",
    "GLC [mg/dL]": 191
  }
]

---

Species on record: Rattus norvegicus
run-description: Open TG-GATES - Regimen: Daily Repeat
Assay type: toxicity, organism-based, Sprague-Dawley
Set-up: regimen Daily Repeat, gender Male, age 6 weeks
experimental-context: in vivo, po, 300 mg/kg, […], tissue Blood, route gavage, dose level Middle, time 7 day

[
  {
    "compound": "O=C(O)c1ccccc1Nc1ccccc1 [FENAMIC ACID]",
    "unit-label": "%",
    "Neu": 15.2
  },
  {
    "compound": "CC(=O)[C@@]1(O)CC[C@H]2[C@@H]3C=C(Cl)C4=CC(=O)CC[C@]4(C)[C@H]3CC[C@@]21C [CHLORMADINONE]",
    "unit-label": "%",
    "Neu": 10.2
  },
  {
    "compound": "CCCCNC(=O)NS(=O)(=O)c1ccc(C)cc1 [TOLBUTAMIDE]",
    "unit-label": "%",
    "Neu": 14.6
  },
  {
    "compound": "CC(S)C(=O)NCC(=O)O (centres undefined) [TIOPRONIN]",
    "unit-label": "%",
    "Neu": 18
  }
]

---

Species on record: Rattus norvegicus
run-description: Open TG-GATES - Regimen: Daily Repeat
Type: toxicity, organism-based, Sprague-Dawley
Set-up: regimen Daily Repeat, gender Male, age 6 weeks
experimental-context: in vivo, po, 0 mg/kg, […], tissue Plasma, route gavage, dose level Control, time 7 day

[
  {
    "molecule": "CCCCC1C(=O)N(c2ccccc2)N(c2ccccc2)C1=O",
    "unit-label": "meq/L",
    "K": 4.9
  },
  {
    "molecule": "COc1ccc([C@@H]2Sc3ccccc3N(CCN(C)C)C(=O)[C@@H]2OC(C)=O)cc1",
    "unit-label": "meq/L",
    "K": 4.3
  },
  {
    "molecule": "O=c1ccc2ccccc2o1",
    "unit-label": "meq/L",
    "K": 4.9
  },
  {
    "molecule": "CCCCNC(=O)NS(=O)(=O)c1ccc(C)cc1 [TOLBUTAMIDE]",
    "unit-label": "meq/L",
    "K": 4.1
  },
  {
    "molecule": "CCO",
    "unit-label": "meq/L",
    "K": 4.7
  },
  {
    "molecule": "CCN(CC)C(=S)SSC(=S)N(CC)CC",
    "unit-label": "meq/L",
    "K": 4.5
  },
  {
    "molecule": "O=C(O)c1ccccc1Nc1ccccc1",
    "unit-label": "meq/L",
    "K": 4.3
  },
  {
    "molecule": "CC(=O)[C@@]1(O)CC[C@H]2[C@@H]3C=C(Cl)C4=CC(=O)CC[C@]4(C)[C@H]3CC[C@@]21C",
    "unit-label": "meq/L",
    "K": 4.2
  },
  {
    "molecule": "CN(C/C=C/C#CC(C)(C)C)Cc1cccc2ccccc12",
    "unit-label": "meq/L",
    "K": 4.5
  },
  {
    "molecule": "NS(=O)(=O)c1cc(C(=O)O)c(NCc2ccco2)cc1Cl [FUROSEMIDE]",
    "unit-label": "meq/L",
    "K": 4
  },
  {
    "molecule": "CN(CCOc1ccc(CC2SC(=O)NC2=O)cc1)c1ccccn1.O=C(O)/C=C\\C(=O)O (stereo not drawn) [ROSIGLITAZONE MALEATE]",
    "unit-label": "meq/L",
    "K": 4.5
  },
  {
    "molecule": "Nc1ccc(Cc2ccc(N)cc2)cc1",
    "unit-label": "meq/L",
    "K": 4.1
  },
  {
    "molecule": "CC(S)C(=O)NCC(=O)O (stereo not drawn)",
    "unit-label": "meq/L",
    "K": 4.5
  }
]

---

Organism: Rattus norvegicus
run-description: Open TG-GATES - Regimen: Daily Repeat
Type: toxicity, organism-based, Sprague-Dawley
Design: regimen Daily Repeat, gender Male, age 6 weeks
experimental-context: in vivo, po, 100 mg/kg, […], tissue Plasma, route gavage, dose level Low, time 14 day
Measured gamma-GTP, listed per entry for reference.

[
  {
    "molecule": "CCCCNC(=O)NS(=O)(=O)c1ccc(C)cc1 [TOLBUTAMIDE]",
    "unit-label": "IU/L",
    "gamma-GTP": 1.2
  },
  {
    "molecule": "O=C(O)c1ccccc1Nc1ccccc1",
    "unit-label": "IU/L",
    "gamma-GTP": 1
  },
  {
    "molecule": "CC(S)C(=O)NCC(=O)O (centres undefined)",
    "unit-label": "IU/L",
    "gamma-GTP": 2
  },
  {
    "molecule": "CC(=O)[C@@]1(O)CC[C@H]2[C@@H]3C=C(Cl)C4=CC(=O)CC[C@]4(C)[C@H]3CC[C@@]21C",
    "unit-label": "IU/L",
    "gamma-GTP": 2
  }
]
